assay_system: T1, HLA-A*02:01 class I complex (conditional p*HLA*02:01, biotinylated heavy chain with beta2-microglobulin) (human, biotinylated heavy chain)
T1 construct: UV-labile peptide p* is cleaved and exchanged for the test peptide; also called HLA 2.1
method_description: UV peptide exchange, HLA class I ELISA, % of Pos peptide
Could you please report measured average relative binding (%) for the items listed next?

Worked cases, average relative binding (%) given:
- YMDCGIHSL (also called M021) [CTNNB1_S33C10 mimic peptide YMDCGIHSL]: > 100%
- GMAPPQLLV (also called M142) [TP53_H193L6 mimic peptide GMAPPQLLV]: < 15%
- SVTCTYFPA (also called M210) [TP53.S127F mutant peptide SVTCTYFPA]: < 15%

Below is a list of binders. For each, state its recorded average relative binding (%).
1. CYMYYYSYLL (also called M104) [PTEN.R173C3 mimic peptide CYMYYYSYLL]
2. YMDSGIHFI (also called M031) [CTNNB1_S37F14 mimic peptide YMDSGIHFI]

< 15%
> 100%
